biological target: abc isoform of human TMEM16A channel expressed in CHO cells (Homo sapiens, UniProt Q5XXA6, DEL476-501); experiment: Automated patch clamping (QPatch) assay to measure TMEM16A activity in whole-cell; conditions: CHO cells expressing human TMEM16A (abc), whole-cell automated patch clamp, Hill fit; read-out: TMEM16A QPATCH assay EC50 V3 EC50
Sequence (Q5XXA6 with tags, fused parts or gaps isoform Q5XXA6-5 DEL539-564): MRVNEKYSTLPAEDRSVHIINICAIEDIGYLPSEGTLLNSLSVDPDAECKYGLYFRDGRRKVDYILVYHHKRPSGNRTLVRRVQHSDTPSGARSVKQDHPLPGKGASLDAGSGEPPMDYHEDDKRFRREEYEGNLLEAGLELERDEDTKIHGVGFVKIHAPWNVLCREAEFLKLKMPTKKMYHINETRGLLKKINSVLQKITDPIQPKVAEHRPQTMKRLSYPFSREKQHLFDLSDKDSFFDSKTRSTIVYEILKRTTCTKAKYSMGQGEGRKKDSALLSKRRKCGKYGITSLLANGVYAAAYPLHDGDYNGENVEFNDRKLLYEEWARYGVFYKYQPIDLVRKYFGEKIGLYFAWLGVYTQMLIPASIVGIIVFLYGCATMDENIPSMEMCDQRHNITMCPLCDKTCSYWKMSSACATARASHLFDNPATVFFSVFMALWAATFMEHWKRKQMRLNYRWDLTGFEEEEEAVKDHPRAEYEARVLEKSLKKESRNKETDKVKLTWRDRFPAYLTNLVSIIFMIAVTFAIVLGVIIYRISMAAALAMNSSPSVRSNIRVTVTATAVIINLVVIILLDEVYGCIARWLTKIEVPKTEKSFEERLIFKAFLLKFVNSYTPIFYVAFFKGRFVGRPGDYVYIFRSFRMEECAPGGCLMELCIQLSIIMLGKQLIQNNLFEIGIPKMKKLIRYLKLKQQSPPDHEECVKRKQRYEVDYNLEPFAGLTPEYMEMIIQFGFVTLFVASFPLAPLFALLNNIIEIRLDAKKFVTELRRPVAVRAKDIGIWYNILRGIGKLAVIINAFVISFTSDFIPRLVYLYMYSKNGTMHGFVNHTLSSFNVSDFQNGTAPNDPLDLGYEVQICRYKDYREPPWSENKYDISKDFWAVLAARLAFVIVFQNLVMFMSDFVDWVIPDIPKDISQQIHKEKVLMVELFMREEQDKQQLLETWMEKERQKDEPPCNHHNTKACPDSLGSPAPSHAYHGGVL
pEC50: −log10 of the molar value. Counter-ions that a name gives are not always drawn.
The following compounds are shown together with reported pEC50 values.
PROPERTY_LABEL: pEC50

COMPOUND	EXPERIMENTAL_VALUE
CCC(CC)NC(=O)c1cnc(-c2cccc(-c3cc(C(=O)N[C@@H](C)C(C)(C)C)n[nH]3)c2)o1 [Example 3.35, Trifluoroacetate]	6.92
CCOC(=O)[C@@H](NC(=O)c1cnc(-c2cccc(-c3cc(C(=O)NC(C4CC4)C(F)(F)F)[nH]n3)c2)o1)C(C)C (single isomer, unassigned) [Example 2.3 (i)]	7.52
CC(C)[C@H](C)NC(=O)c1cnc(-c2cccc(-c3nnc(C(=O)N[C@@H](C)C4CC4)[nH]3)c2)o1	6.82
CCC(CC)NC(=O)c1cc(-c2cccc(-c3ncc(C(=O)NC(C)(C)C(=O)OC(C)(C)C)o3)c2)[nH]n1	6.59
